The measured values listed here are drawn from patent US8965708B2.

Reported Log Kow values for a set of compounds
- assay-remarks: Log Kow
- Type: physicochemical

compound	Log Kow
CC(C(=O)O)c1cccc(C(=O)c2ccccc2)c1 (stereo not shown) [ketoprofen]	3.00
COC(=O)C(C)c1cccc(C(=O)c2ccccc2)c1 (stereo not shown) [ketoprofen methyl ester]	3.65
CCOC(=O)C(C)c1cccc(C(=O)c2ccccc2)c1 (stereo not shown) [ketoprofen ethyl ester]	4.14
CC(C)OC(=O)C(C)c1cccc(C(=O)c2ccccc2)c1 (stereo not shown) [ketoprofen isopropyl ester]	4.56
